- target_of_assay: T1, SARS-CoV2 Spike ecto foldon Trimer expressed with a C-terminal myc-myc-hexahistidine (SARS-CoV-2, UniProt P0DTC2 14-1213)
- T1 construct: extracellular domain
- method_notes: SPR Biacore, mAb captured by anti-hFc, 25C
metric: t½ (h)
State the answer as a number, implicitly in h.

Task item: Which t½ value belongs to mAb13458 (antibody, V domains shown) VH: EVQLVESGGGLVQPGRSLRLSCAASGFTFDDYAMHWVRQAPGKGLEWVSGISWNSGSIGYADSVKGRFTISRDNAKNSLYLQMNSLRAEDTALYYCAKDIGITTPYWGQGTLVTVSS VL: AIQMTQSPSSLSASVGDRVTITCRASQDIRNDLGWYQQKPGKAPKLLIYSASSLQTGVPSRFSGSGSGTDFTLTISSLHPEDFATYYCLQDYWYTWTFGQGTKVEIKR ?
Reply: 4.52
